target: Gamma-aminobutyric acid receptor subunit alpha-1/alpha-2/beta-2/gamma-2 (Homo sapiens, UniProt P14867+P18507+P47869+P47870); format: protein-complex assay; further: assay procedure not described here
Sequence (P14867 whole entry): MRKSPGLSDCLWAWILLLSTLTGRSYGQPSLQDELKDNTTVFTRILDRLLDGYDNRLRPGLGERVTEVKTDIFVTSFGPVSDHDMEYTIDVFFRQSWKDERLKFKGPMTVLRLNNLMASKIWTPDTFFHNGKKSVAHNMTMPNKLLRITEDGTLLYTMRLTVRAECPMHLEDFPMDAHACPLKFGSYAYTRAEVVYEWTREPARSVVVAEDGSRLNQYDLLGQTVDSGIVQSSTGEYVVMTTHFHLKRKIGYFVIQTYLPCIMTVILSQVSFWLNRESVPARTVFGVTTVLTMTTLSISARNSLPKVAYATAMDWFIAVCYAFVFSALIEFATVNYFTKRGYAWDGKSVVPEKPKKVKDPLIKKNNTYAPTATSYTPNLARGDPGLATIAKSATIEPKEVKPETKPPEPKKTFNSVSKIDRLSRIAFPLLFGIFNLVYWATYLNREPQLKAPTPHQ
Sequence (P47870 whole entry): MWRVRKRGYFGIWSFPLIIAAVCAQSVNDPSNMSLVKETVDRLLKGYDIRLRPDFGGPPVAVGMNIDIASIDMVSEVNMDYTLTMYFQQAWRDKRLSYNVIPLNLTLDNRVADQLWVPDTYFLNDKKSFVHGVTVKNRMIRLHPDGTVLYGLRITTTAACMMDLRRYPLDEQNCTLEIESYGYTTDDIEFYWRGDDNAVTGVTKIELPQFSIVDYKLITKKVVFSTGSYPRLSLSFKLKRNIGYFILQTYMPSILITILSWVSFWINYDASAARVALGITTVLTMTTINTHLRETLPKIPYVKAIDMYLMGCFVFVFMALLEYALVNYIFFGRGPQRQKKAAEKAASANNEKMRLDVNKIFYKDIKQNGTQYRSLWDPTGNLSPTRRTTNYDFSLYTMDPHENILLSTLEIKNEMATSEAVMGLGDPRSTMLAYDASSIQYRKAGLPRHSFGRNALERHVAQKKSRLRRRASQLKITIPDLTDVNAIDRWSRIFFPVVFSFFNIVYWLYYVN
Sequence (P18507 whole entry): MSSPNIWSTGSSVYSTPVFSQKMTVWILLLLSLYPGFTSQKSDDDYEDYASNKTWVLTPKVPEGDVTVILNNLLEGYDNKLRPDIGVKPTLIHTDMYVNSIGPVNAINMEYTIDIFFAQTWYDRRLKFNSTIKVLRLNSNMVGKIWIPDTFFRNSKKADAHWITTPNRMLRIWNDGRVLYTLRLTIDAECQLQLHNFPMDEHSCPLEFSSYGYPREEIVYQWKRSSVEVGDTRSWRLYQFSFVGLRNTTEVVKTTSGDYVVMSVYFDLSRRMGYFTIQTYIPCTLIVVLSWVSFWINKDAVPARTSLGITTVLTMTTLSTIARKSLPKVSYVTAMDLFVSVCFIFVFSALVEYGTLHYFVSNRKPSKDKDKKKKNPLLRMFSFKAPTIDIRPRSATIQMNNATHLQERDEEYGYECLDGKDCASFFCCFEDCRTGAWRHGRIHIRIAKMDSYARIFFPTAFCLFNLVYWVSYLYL
Sequence (P47869 whole entry): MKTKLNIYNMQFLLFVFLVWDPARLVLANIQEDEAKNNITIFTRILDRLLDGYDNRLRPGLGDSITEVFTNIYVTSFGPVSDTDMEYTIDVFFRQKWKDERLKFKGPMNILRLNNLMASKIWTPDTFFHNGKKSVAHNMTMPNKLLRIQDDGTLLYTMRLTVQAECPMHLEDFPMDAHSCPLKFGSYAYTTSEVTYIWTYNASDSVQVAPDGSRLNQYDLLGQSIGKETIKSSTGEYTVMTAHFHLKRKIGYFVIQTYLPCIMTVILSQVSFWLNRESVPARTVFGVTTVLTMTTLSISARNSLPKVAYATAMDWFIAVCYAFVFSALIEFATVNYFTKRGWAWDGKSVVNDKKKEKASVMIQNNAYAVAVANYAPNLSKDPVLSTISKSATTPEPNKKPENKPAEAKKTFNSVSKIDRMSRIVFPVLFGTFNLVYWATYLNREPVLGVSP
As shown below, each of these compounds has a reported AC50 value.
Endpoint: AC50

1. CS(=O)(=O)Nc1ccc([N+](=O)[O-])cc1Oc1ccccc1 [NIMESULIDE] : > 30 µM
2. Cc1ccc(O)c([C@H](CCN(C(C)C)C(C)C)c2ccccc2)c1 : > 30 µM
3. CC(NCCC(c1ccccc1)c1ccccc1)c1ccccc1 (stereo unspecified) : > 10 µM
4. CC(C)NC[C@H](O)COc1ccc(O)cc1 : > 30 µM
5. Cc1cn(-c2cc(NC(=O)c3ccc(C)c(Nc4nccc(-c5cnccn5)n4)c3)cc(C(F)(F)F)c2)cn1 : > 30 µM
6. Oc1ccc(OCc2ccccc2)cc1 : > 30 µM
7. CC(C)N1CCOC(c2cccc(C(F)(F)F)c2)C1 (stereo unspecified) : > 30 µM
8. CC(=O)Oc1ccccc1C(=O)O : > 30 µM
9. CC(CN(C)C)CN1c2ccccc2CCc2ccccc21 (stereo unspecified) : > 30 µM
10. CCCCCCCC/C=C\CCCCCCCC(=O)O : > 30 µM
11. Cc1ccc(Cl)c(Nc2ccccc2C(=O)O)c1Cl : > 3 µM

Origin of values: ChEMBL document CHEMBL5291721
